- System: CCRF-CEM leukemia
- test-protocol: NCI tumour cell line growth inhibition, 48 h
Would you mind telling me the reported TGI of each entry?

compound: COC(C/C(=C/CO[Si](C(C)C)(C(C)C)C(C)C)C(=O)N(COCC[Si](C)(C)C)c1ccccc1I)OC
measurement: > 100 µM

compound: O=C(Nc1sccc1S(=O)(=O)c1ccc(Cl)cc1)c1ccc(F)cc1F
measurement: 37.8 µM

compound: CC(=O)n1cc(C2CC23N=C(c2ccccc2)OC3=O)c2ccccc21 (stereo not drawn)
measurement: 7.86 µM

compound: CCCn1c(SCCSc2c3ccccc3c(-c3nc(F)nc(F)n3)n2CCC)c2ccccc2c1-c1nc(F)nc(F)n1
measurement: > 100 µM

compound: COc1ccc(/C=C(/c2ccccc2)[N+](=O)[O-])c(OC)c1
measurement: 4.76 µM

compound: O=c1c2c([nH]c3nccn13)CCC2
measurement: > 10 µM

Give TGI for all compounds that follow.
1. Cc1ccc(S(=O)(=O)NC(=O)NC(Cc2ccc(O)cc2)C(=O)O)cc1 (stereo not drawn)
2. C[C@H]1[C@H](C)N1CC(O)Cn1ccnc1[N+](=O)[O-] (stereo partly drawn)

Result:
1. > 100 µM
2. > 100 µM

* * *

- System: BT-549 breast
- test-protocol: NCI tumour cell line growth inhibition, 48 h
outcome-measure: GI50

Use the examples below as a reference point.
molecule: COc1c(C(C)=O)c(OCCCCOc2c(C(C)=O)c(OC)c3ccoc3c2OC)c(OC)c2occc12
GI50: 1610 nM
//
molecule: Cc1ccc(/C=C(\C#N)c2cc3ccccc3n2C)cc1
GI50: 742 nM

Read the next record carefully.
Ask: I'd like to know its GI50. The molecule in question is CCCCC(SC(=S)N1CCCC1)C(=O)Nc1nc(CC(=O)OCC)cs1 (stereo not drawn)
Result: 59700 nM

* * *

- System: MDA-MB-435
- test-protocol: NCI tumour cell line growth inhibition, 48 h
Would you mind telling me the reported TGI of each entry?

Use the examples below as a reference point.
compound: N#CC1(C#N)C(C#N)(C#N)C1(C#N)C(N)=O
measurement: > 100 µM
--
compound: CCOC(=O)N1C/C(=C\c2ccccc2)C(=O)/C(=C/c2ccccc2)C1
measurement: 5.8 µM
--
compound: COC(=O)c1cc(-c2ccccc2)[nH]c1N/N=C/c1c(Cl)cccc1Cl
measurement: 0.119 µM
--
compound: Cc1ccc(S(=O)(=O)N2C[C@@H]3CC[C@]4(CO[Si](C)(C)C(C)(C)C)N[C@@H](c5ccccc5)[C@H]2[C@H]34)cc1
measurement: > 100 µM

Give TGI for all compounds that follow.
1. FC(F)(F)c1cc(N(C2c3ccccc3C=Cc3ccccc32)P(Cl)Cl)cc(C(F)(F)F)c1
2. COc1cc2ccc(C(=O)NCCCNC(=O)c3ccc4cc(OC)c(OC)cc4c3)cc2cc1OC

Result:
1: 64.9 µM; 2: > 100 µM

Give TGI for all compounds that follow.
1. O=c1[nH]nc(-c2ccccc2)n1/N=C/c1ccc([N+](=O)[O-])o1
2. O=[N+]([O-])c1cccc(/C=N/NC2=CS(=O)(=O)C=C2)c1
3. Cc1cn(C2CCC(CO)(CF)O2)c(=O)[nH]c1=O (stereo unspecified)
4. O=C(COc1ccc(OCC(=O)N2C(=O)CC(=O)N(c3ccc(Cl)cc3)C2=S)cc1)N1C(=O)CC(=O)N(c2ccc(Cl)cc2)C1=S
5. CC1=CC2C(C(O)CC3(C)C2CC(C)C32OCOC23COCO3)C2(C)C/C(=C/O)C(=O)C=C12 (stereo unspecified)
6. CN1/C(=C/C=C/C=C/C=C2C(=O)c3ccccc3C2=O)C(C)(C)c2ccccc21

Result:
10.9 µM
> 100 µM
> 100 µM
> 100 µM
3.64 µM
> 100 µM

Give TGI for all compounds that follow.
1. Cc1ccc(S(=O)(=O)Oc2ccc3c4c(c(=O)oc3c2)CCCCCC4)cc1
2. Cc1cc(S(=O)(=O)Nc2nc3ncccc3[nH]2)c(S)cc1Cl
3. O=c1c2c([nH]c3nccn13)CCC2
4. O=P1(N2CCOCC2)OCCO1
5. COc1ccc(/C=C(/c2ccccc2)[N+](=O)[O-])c(OC)c1
6. CCCC[C@@H](C)/C=C1\CN2CCC[C@H]2[C@@](C)(OCc2ccccc2)[C@@H]1O
7. O=C(/C(=C(/O)c1ccccc1)c1nc2ccccc2sc1=O)c1ccccc1

Result:
> 100 µM
> 100 µM
> 10 µM
> 100 µM
2.97 µM
> 50 µM
> 100 µM

Give TGI for all compounds that follow.
1. CCN1C/C(=C\c2ccc(Cl)cc2)c2nc(N)c(C#N)c(-c3ccc(Cl)cc3)c2C1
2. c1nc(NCCc2cnc[nH]2)c2[nH]cnc2n1

Result:
1: > 100 µM; 2: > 100 µM

* * *

- System: EKVX NSCLC
- test-protocol: NCI tumour cell line growth inhibition, 48 h
outcome-measure: TGI

Use the examples below as a reference point.
compound: COc1ccc(-c2c(C)c(C(=O)O)nc(-c3ccc4c(O)c(OC)c5c(c4n3)=NC(C)(C)N=5)c2N)c(O)c1OC
assayed-target: EKVX NSCLC
measurement: > 100 µM

compound: [N-]=[N+]=NC(c1cn(C2CC(O)C(CO)O2)c(=O)[nH]c1=O)C(Cl)Br (centres undefined)
assayed-target: EKVX NSCLC
measurement: > 100 µM

compound: Cc1ccc(S(=O)(=O)N/N=C(\c2nc3ccc(Cl)cc3[nH]c2=O)C(O)c2ccco2)cc1 (centres undefined)
assayed-target: EKVX NSCLC
measurement: > 100 µM

compound: NC(=N\N=C/c1ccc(O)cc1)/C(N)=N\N=C/c1ccc(O)cc1
assayed-target: EKVX NSCLC
measurement: > 100 µM

compound: CNC(=O)NCC1OC(n2cnc3c(NC(=O)Nc4ccccc4)ncnc32)C(O[Si](C)(C)C(C)(C)C)C1O[Si](C)(C)C(C)(C)C (centres undefined)
assayed-target: EKVX NSCLC
measurement: 30.6 µM

compound: Cc1ccc(/C=C/c2c(C(=O)/C=C/c3ccccc3)c(C)nc3ccccc23)cc1
assayed-target: EKVX NSCLC
measurement: 3.58 µM

compound: c1nc(NCCc2cnc[nH]2)c2[nH]cnc2n1
assayed-target: EKVX NSCLC
measurement: > 100 µM

compound: O[C@@H]1C=C[C@]23CCN(Cc4cc5c(cc42)OCO5)[C@@H]3C1
assayed-target: EKVX NSCLC
measurement: > 100 µM

Read the next record carefully.
Ask: I'd like to know its TGI. The compound in question is CCOC(=O)/C(C(N)=O)=C(\O)C(=O)/C(Br)=C(\O)c1ccccc1
Result: 52.8 µM

* * *

- Tested on: NCI-H23 lung
- test-protocol: NCI tumour cell line growth inhibition, 48 h
Would you mind telling me the reported TGI of each entry?

Give TGI for all compounds that follow.
1. C[N+]1=c2c3cccc4cccc(c(=O)n2CC1)c43
2. O=C1COc2cc(N3CCN(c4cccc(C(F)(F)F)c4)CC3)ccc2N1
3. O=C1NC(=O)c2ccccc2/C1=C/c1ccc2c(c1)OCO2
4. COc1c(C(C)=O)c(OCCCCOc2c(C(C)=O)c(OC)c3ccoc3c2OC)c(OC)c2occc12
5. O=C(COc1ccc(OCC(=O)N2C(=O)CC(=O)N(c3ccc(Cl)cc3)C2=S)cc1)N1C(=O)CC(=O)N(c2ccc(Cl)cc2)C1=S
6. CSC(=S)Nc1cc(C)cc(C)n1
7. COC(=O)[C@@H]1CS(=O)(=O)C(C(C)C)N1C(C)=O (stereo not given in full)
8. CC(C)C1CO[C@]2(C)CCC(=O)N12 (stereo not given in full)

Result:
1: 32.3 µM; 2: > 100 µM; 3: 46.8 µM; 4: > 100 µM; 5: > 100 µM; 6: > 31.6 µM; 7: > 100 µM; 8: > 100 µM

Give TGI for all compounds that follow.
1. Cc1cc(S(=O)(=O)Nc2nc3ncccc3[nH]2)c(S)cc1Cl
2. C=CCn1c(=S)sc2c(C(=O)OCC)c3c(C)cc(C)cn3c2c1=O

Result:
1: > 100 µM; 2: > 100 µM

* * *

- Test system: HT29 colon
- test-protocol: NCI tumour cell line growth inhibition, 48 h
*1 amine or outer side, *2 acyl side, *3 side chain or, on linkers, in order; H or OH if unused. Where a SMILES comes first, the peptide text is derived from it. Bridges are numbered along the chain shown (N, C = ends). Roman numbers before positions name the chains, in order. [ ]: non-standard residue; d: D form. Actinocin(9to1) = Cc1c2oc3c(C)ccc(C(=O)[*:1])c3nc-2c(C(=O)[*:2])c(N)c1=O; NMeV = CN[CH](C(=O)O)C(C)C; Sar = CNCC(=O)O
outcome-measure: TGI (µM)
Numbers only, in µM.

molecule: OCCCCC#Cc1ccccc1C#Cc1ccc(O)cc1
measurement: 22.2
//
molecule: CC(C)(C)OC(=O)[C@@H]1CCC(=O)N1C1(c2ccccc2)c2ccccc2-c2ccccc21
measurement: 90.1
//
molecule: ClC(Cl)=C(Cl)C1(Cl)CC1COCc1ccccc1 (stereo not drawn)
measurement: 86.3
//
molecule: COc1cc2c3c(n(CCCN)c(=O)c2cc1OC)-c1ccc([N+](=O)[O-])cc1C3=O
measurement: 21.4
//
molecule: C[N+]1=c2c3cccc4cccc(c(=O)n2CC1)c43
measurement: 64.4

Read the next record carefully.
Ask: I'd like to know its TGI. The molecule in question is Cc1c2oc3c(C)ccc(C(=O)NC4C(=O)NC(Cc5ccccc5)C(=O)N5CCCC5C(=O)N(C)CC(=O)N(C)C(C(C)C)C(=O)OC4C)c3nc-2c(C(=O)NC2C(=O)NC(Cc3ccccc3)C(=O)N3CCCC3C(=O)N(C)CC(=O)N(C)C(C(C)C)C(=O)OC2C)c(N)c1=O (stereo not drawn) (I: TFP[Sar][NMeV] / II: TFP[Sar][NMeV]; ester I:1-I:C, II:1-II:C; linker I:N-II:N via Actinocin(9to1); configuration not given here)
Result: 0.0108
